Listed here are molecules together with their documented IC50.
# Tested on: E. coli
# assayMethodText: Antibiotic dilution assay, E. coli
# Assay type: cell-based
# protocolConditions: Escherichia coli; liquid medium, OD600; read-out: Bacterial IC 50 (μM) E. Coli
# Method: The antibiotic activity of the compounds was determined via antibiotic dilution assay. After filling 100 μl growth medium into all the wells of a 96 well plate, the compounds were diluted from 1 mM to 0.010 μM. […] The OD600 was then determined on a standard plate reader. Various analogs were compared in vitro to determine key properties. Antibacterial effect was determined in representative Gram negative (E. coli) and positive (S. aureus) organisms using the method of example 16. […]
Answer in µM, number only, no unit symbol.

Example results:
CC[C@H]1OC(=O)[C@H](C)C(=O)[C@H](C)[C@@H](O[C@@H]2O[C@H](C)CC(N(C)C)[C@H]2O)[C@](C)(O)C[C@@H](C)CN(C)[C@H](C)[C@H]2OC(=O)O[C@@]21C (stereo partly shown)    1350
CC[C@H]1OC(=O)[C@H](C)[C@@]2(O)O[C@@](C)(C[C@@H](C)CN[C@H](C)[C@@H](O)[C@]1(C)O)[C@H](O[C@@H]1O[C@H](C)C[C@H](NC)[C@H]1O)[C@H]2C    1320
CC[C@H]1OC(=O)[C@H](C)C2(O)O[C@](C)(C[C@@H](C)CN(C)[C@H](C)[C@@H](O)[C@]1(C)O)[C@H](O[C@@H]1O[C@H](C)CC(N(C)C)[C@H]1O)[C@H]2C (stereo partly shown)    1000

Note: attention shifts to another entry.
(Q) Recall the recorded IC50 for CC[C@H]1OC(=O)[C@H](C)[C@@H](O[C@H]2C[C@@](C)(OC)[C@@H](O)[C@H](C)O2)[C@H](C)[C@@H](O[C@@H]2O[C@H](C)C[C@H](N(C)C)[C@H]2O)[C@](C)(O)C[C@@H](C)CN(C)[C@H](C)[C@@H](O)[C@]1(C)O [Compound 3, reference compound] with E. coli and state it.
(A) 5.5
